Tested on: GST-TIE2 (intracellular domains of human TIE2) (Homo sapiens)
Construct: made in house
Assay overview: TIE-2 enzyme assay (TIE2-E), LANCE method
Assay type: biochemical
Measurement setup: 80 uM ATP
Value type: IC50

# Molecule, Value type, Value
rows = [
    ("COC(=O)Nc1nc2cc(Oc3ccc(NC(=O)Nc4cc(C(F)(F)F)ccc4F)cn3)ccc2[nH]1 [Example 37]", "IC50", "< 100 nM"),
]

Lab note: next molecule to report on.
GET /value?item= COC(=O)Nc1nc2cc(Oc3ccc(NC(=O)Nc4cccc(SC)c4)cc3)ccc2[nH]1 [Example 48] &field=IC50 returns < 100 nM

###

Tested on: GST-VEGFR2 (Homo sapiens)
Construct: GST-VEGFR2, baculovirus expressed recombinant constructs of the intracellular domains of human TIE2 tagged by GST
Assay overview: VEGF-R2 enzyme assay (VEGF-E), LANCE method
Measurement setup: 75 μM ATP
pIC50: −log10 of the molar value. Counter-ions that a name gives are not always drawn.
Value type: pIC50

# Molecule, pIC50
records = [
    ("COC(=O)Nc1nc2cc(Oc3ccc(NC(=O)Nc4cc(C(F)(F)F)ccc4F)cn3)ccc2[nH]1", "> 7.00"),
    ("CN1CCN(Cc2ccc(C(=O)Nc3nc4cc(Oc5ccc(NC(=O)Nc6cc(C(F)(F)F)ccc6F)cc5)ccc4[nH]3)cc2)CC1", "> 7.00"),
    ("NCC(=O)Nc1nc2cc(Oc3ccc(NC(=O)Nc4cc(C(F)(F)F)ccc4F)cc3)ccc2[nH]1 [Example 30, dihydrochloride]", "> 7.00"),
    ("COC(=O)Nc1nc2cc(Sc3ccc(NC(=O)Nc4cc(C(F)(F)F)ccc4Cl)cc3)ccc2[nH]1.Cl [Example 51, hydrochloride]", "> 7.00"),
]

Lab note: next molecule to report on.
GET /value?item= COC(=O)Nc1nc2cc(Oc3ccc(NC(=S)Nc4cccc(OC)c4)cc3)ccc2[nH]1 &field=pIC50 returns 6.00 to 7.00

###

Listed compounds paired with reported pIC50
Tested on: GST-VEGFR2 (Homo sapiens, UniProt P35968)
Construct: GST-VEGFR2, baculovirus expressed recombinant constructs of the intracellular domains of human TIE2 tagged by GST
Sequence (P35968 786-1356 limits assumed): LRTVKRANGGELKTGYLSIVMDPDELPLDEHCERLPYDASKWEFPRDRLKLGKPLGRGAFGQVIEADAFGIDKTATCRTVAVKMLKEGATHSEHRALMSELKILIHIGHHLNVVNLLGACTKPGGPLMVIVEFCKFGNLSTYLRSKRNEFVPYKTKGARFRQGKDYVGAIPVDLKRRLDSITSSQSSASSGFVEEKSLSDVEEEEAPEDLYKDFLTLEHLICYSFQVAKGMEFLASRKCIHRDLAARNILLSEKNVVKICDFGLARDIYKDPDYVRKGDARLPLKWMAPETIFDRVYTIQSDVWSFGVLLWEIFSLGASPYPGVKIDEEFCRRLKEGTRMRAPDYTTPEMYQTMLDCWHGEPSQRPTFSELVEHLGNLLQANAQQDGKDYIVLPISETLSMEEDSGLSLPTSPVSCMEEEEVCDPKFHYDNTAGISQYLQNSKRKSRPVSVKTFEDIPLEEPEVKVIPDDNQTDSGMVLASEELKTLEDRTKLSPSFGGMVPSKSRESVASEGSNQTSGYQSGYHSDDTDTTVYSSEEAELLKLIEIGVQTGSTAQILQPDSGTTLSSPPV
Assay overview: VEGF-R2 enzyme assay (VEGF-E), LANCE method
Measurement setup: 75 μM ATP
pIC50: −log10 of the molar value. Structures can show the parent of a compound that is named as a salt.

# Compound, Value type, Value
records = [
    ("COC(=O)Nc1nc2cc(Oc3cccc(NC(=O)Nc4cccc(Oc5ccccc5)c4)c3)ccc2[nH]1", "pIC50", "> 7.00"),
    ("COC(=O)Nc1nc2ccc(Oc3cccc(NC(=O)Nc4cc(C(F)(F)F)ccc4Cl)c3)cc2[nH]1 [Example 52, hydrochloride]", "pIC50", "> 7.00"),
    ("COC(=O)Nc1nc2cc(Oc3cccc(NC(=O)Nc4ccccc4C(F)(F)F)c3)ccc2[nH]1", "pIC50", "6.00 to 7.00"),
]

Lab note: next compound to report on.
GET /value?item= COC(=O)Nc1nc2cc(Oc3ccc(NC(=O)Nc4cc(C(F)(F)F)ccc4Cl)cc3)ccc2[nH]1 &field=pIC50 returns > 7.00

###

Tested on: GST-TIE2 (intracellular domains of human TIE2) (Homo sapiens, UniProt Q02763)
Sequence (Q02763 762-1104): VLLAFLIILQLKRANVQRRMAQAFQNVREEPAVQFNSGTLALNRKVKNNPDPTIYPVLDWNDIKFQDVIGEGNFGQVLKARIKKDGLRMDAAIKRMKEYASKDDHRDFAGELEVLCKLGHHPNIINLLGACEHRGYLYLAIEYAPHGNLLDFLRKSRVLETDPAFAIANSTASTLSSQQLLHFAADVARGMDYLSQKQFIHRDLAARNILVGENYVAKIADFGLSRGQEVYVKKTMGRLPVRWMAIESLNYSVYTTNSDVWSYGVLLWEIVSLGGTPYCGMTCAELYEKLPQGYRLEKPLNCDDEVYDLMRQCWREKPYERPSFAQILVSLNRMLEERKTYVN
Assay overview: TIE-2 enzyme assay (TIE2-E), LANCE method
Measurement setup: 80 uM ATP
pIC50: −log10 of the molar value.
Value type: pIC50

# Molecule, Tested on, Value
rows = [
    ("O=C(CCc1cccnc1)Nc1nc2cc(Oc3ccc(NC(=O)Nc4cc(C(F)(F)F)ccc4F)cc3)ccc2[nH]1", "GST-TIE2 (intracellular domains of human TIE2) (Homo sapiens, UniProt Q02763)", "> 7.00"),
    ("CS(=O)(=O)n1c(N)nc2ccc(Oc3ccc(NC(=O)Nc4cc(C(F)(F)F)ccc4F)cc3)cc21", "GST-TIE2 (intracellular domains of human TIE2) (Homo sapiens, UniProt Q02763)", "> 7.00"),
    ("COC(=O)Nc1nc2ccc(Sc3ccc(NC(=O)Nc4cc(C(F)(F)F)cc(C(F)(F)F)c4)cc3)cc2[nH]1", "GST-TIE2 (intracellular domains of human TIE2) (Homo sapiens, UniProt Q02763)", "6.00 to 7.00"),
]

Lab note: next molecule to report on.
GET /value?item= O=C(Cn1nnc(N2CCCC2)n1)Nc1nc2cc(Oc3ccc(NC(=O)Nc4cc(C(F)(F)F)ccc4F)cc3)ccc2[nH]1 &field=pIC50 returns > 7.00
